- experimental.protocol: Cmax in Sprague-Dawley rat at 2 mg/kg, po
- Assay type: ADME, organism-based
- Design: dose 2 mg/kg, route oral
- details: in vivo
assay.readout: log10 Cmax (log10 of the value in nM)

| compound | log10 Cmax |
| --- | --- |
| COc1cccc(OCc2nc3c(OC)cc(-c4cn[nH]c4)cc3c(=O)[nH]2)c1 | 2.82 |
| COc1ccc2c(c1)C[C@H](c1nc3ccc(-c4cn[nH]c4)cc3c(=O)[nH]1)CO2 | 3.45 |
| COc1ccc2c(c1)CC(c1nc3ccc(-c4cn[nH]c4)cc3c(=O)[nH]1)CO2 (stereo unspecified) | 3.90 |
| COc1ccc2c(c1)CC(c1nc3c(OC)cc(-c4cn[nH]c4)cc3c(=O)[nH]1)CO2 (stereo unspecified) | 3.66 |
| COc1ccc2c(c1)C[C@@H](c1nc3ccc(-c4cn[nH]c4)cc3c(=O)[nH]1)CO2 | 2.76 |
| COc1ccc2c(c1)CC(c1nc3c(OCCN(C)C)cc(-c4cn[nH]c4)cc3c(=O)[nH]1)CO2 (stereo unspecified) | 1.70 |

====

- experimental.protocol: Volume of distribution at steady state in Sprague-Dawley rat at 1 mg/kg, iv
- Assay type: ADME, organism-based
- Set-up: dose 1 mg/kg, route intravenous
- details: in vivo, read-out: Vdss
assay.readout: Vd (L/kg)

| molecule | result |
| --- | --- |
| COc1ccc2c(c1)C[C@@H](c1nc3ccc(-c4cn[nH]c4)cc3c(=O)[nH]1)CO2 | 0.49 |
| COc1ccc2c(c1)C[C@H](c1nc3ccc(-c4cn[nH]c4)cc3c(=O)[nH]1)CO2 | 0.14 |
| COc1ccc2c(c1)CC(c1nc3ccc(-c4cn[nH]c4)cc3c(=O)[nH]1)CO2 (stereo unspecified) | 0.27 |
| COc1ccc2c(c1)CC(c1nc3c(OC)cc(-c4cn[nH]c4)cc3c(=O)[nH]1)CO2 (stereo unspecified) | 0.1 |
| COc1cccc(OCc2nc3c(OC)cc(-c4cn[nH]c4)cc3c(=O)[nH]2)c1 | 0.22 |
| COc1ccc2c(c1)CC(c1nc3c(OCCN(C)C)cc(-c4cn[nH]c4)cc3c(=O)[nH]1)CO2 (stereo unspecified) | 1.3 |

====

- experimental.protocol: AUC in Sprague-Dawley rat at 2 mg/kg, po
- Assay type: ADME, organism-based
- Set-up: dose 2 mg/kg, route oral
- details: plasma
assay.readout: AUC (µM·h)

| compound | assay.readout | result |
| --- | --- | --- |
| COc1ccc2c(c1)CC(c1nc3c(OC)cc(-c4cn[nH]c4)cc3c(=O)[nH]1)CO2 (stereo unspecified) | AUC | 87.9 |
| COc1ccc2c(c1)C[C@@H](c1nc3ccc(-c4cn[nH]c4)cc3c(=O)[nH]1)CO2 | AUC | 2.36 |
| COc1ccc2c(c1)C[C@H](c1nc3ccc(-c4cn[nH]c4)cc3c(=O)[nH]1)CO2 | AUC | 63.2 |
| COc1ccc2c(c1)CC(c1nc3c(OCCN(C)C)cc(-c4cn[nH]c4)cc3c(=O)[nH]1)CO2 (stereo unspecified) | AUC | 0.15 |
| COc1ccc2c(c1)CC(c1nc3ccc(-c4cn[nH]c4)cc3c(=O)[nH]1)CO2 (stereo unspecified) | AUC | 43.4 |
| COc1cccc(OCc2nc3c(OC)cc(-c4cn[nH]c4)cc3c(=O)[nH]2)c1 | AUC | 9.63 |
